system tested: DNMT1 (purified, Active Motif) (UniProt P26358 1-1616)
Sequence (P26358 whole entry): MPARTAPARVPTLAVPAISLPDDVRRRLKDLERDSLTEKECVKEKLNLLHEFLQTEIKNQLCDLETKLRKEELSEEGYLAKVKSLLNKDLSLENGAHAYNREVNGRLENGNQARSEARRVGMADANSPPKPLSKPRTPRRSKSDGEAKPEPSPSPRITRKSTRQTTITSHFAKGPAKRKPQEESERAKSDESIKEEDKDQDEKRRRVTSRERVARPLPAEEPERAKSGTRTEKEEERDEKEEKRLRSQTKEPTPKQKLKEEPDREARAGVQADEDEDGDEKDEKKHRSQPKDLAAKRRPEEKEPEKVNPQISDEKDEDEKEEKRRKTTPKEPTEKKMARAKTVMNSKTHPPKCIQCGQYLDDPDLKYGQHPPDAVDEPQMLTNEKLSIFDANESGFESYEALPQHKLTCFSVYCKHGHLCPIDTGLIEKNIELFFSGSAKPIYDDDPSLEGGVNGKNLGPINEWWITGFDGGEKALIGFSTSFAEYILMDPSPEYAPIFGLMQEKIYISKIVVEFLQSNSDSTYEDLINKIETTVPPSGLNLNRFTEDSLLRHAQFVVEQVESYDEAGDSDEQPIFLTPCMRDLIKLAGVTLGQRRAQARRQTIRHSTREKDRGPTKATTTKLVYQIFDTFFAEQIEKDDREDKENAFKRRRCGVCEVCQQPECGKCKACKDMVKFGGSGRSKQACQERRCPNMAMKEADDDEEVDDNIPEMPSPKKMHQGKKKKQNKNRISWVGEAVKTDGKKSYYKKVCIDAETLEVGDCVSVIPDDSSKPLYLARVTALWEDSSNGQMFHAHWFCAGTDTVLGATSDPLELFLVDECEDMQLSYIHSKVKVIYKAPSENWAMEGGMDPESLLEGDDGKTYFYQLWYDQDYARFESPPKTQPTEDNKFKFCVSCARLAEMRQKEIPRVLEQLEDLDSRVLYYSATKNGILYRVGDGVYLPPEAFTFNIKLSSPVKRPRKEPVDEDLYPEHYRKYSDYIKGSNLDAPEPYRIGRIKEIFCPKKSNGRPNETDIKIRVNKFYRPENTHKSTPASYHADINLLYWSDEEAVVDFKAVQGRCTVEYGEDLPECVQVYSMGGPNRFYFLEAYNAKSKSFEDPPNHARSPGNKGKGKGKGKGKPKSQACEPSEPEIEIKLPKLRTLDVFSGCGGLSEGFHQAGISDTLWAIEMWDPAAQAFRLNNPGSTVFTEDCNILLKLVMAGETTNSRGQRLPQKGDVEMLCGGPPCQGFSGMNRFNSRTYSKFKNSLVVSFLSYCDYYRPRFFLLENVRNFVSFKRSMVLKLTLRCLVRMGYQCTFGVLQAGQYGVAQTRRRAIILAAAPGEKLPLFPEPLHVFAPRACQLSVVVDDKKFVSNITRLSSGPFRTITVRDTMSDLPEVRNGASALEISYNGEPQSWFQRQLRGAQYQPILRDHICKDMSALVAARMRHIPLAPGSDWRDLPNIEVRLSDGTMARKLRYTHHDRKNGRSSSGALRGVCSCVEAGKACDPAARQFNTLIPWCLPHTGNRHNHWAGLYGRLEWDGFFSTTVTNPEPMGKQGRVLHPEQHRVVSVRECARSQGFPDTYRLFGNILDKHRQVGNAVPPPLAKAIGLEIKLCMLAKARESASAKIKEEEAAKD
procedure text: BLI; BLI: AR2G tips, protein amine-coupled, assay buffer not fully stated (PBS pre-hydration); MST: 50 nM RED-tris-NTA labelled stock in 25 mM Hepes pH 7.5, 250 mM NaCl, 0.05% Tween 20 / PBS-T mix, 25 C; EMSA: 5 mM Tris pH 7.4, 5 mM MgCl2, 1 mM DTT, 3% glycerol, 100 mM NaCl, RT; ELONA: PBS, RT; pulldown: 10 mM Tris pH 7.5, 200 nM (so in the source) NaCl, 5 mM EDTA, 0.1% Triton X-100
run parameters: protein: commercial; hairpin (predicted)
pKd: −log10 of the molar value.
The binders listed here are annotated with their pKd.
recorded metric: pKd

[
  {
    "binder": "UUACUGGGCUGAGGUAAUGGCGAGG (structured_RNA, 2'-F pyrimidines (all C and U)) [Ce-10-2 sh]",
    "numeric readout": 7.18
  },
  {
    "binder": "CUGAGGCCUAACGAAGGCUUCU (structured_RNA, 2'-F pyrimidines (all C and U)) [Ce-49 sh]",
    "numeric readout": 7.10
  }
]
